- TARGET ENTITY: Tyrosine-protein kinase Lck (Homo sapiens)
- Sequence (P06239 whole entry): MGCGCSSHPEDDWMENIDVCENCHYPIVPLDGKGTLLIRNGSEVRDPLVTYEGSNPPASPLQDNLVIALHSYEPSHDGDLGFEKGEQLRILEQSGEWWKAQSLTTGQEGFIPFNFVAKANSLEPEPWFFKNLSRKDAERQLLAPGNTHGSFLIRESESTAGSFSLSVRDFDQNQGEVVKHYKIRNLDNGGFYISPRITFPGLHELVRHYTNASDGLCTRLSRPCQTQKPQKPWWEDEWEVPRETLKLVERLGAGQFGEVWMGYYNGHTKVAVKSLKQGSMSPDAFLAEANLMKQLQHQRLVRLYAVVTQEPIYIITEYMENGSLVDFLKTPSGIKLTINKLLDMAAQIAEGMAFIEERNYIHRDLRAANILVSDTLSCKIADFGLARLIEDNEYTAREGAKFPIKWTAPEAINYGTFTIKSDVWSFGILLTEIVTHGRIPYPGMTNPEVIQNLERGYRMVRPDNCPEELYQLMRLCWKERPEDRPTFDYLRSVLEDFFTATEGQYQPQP
- ASSAY METHOD TEXT: Binding affinity to Lck assessed as photolabeling efficiency by Western blot analysis
TEST READOUT: pEC50
To interpret pEC50, take it as minus log10 of a concentration measured in moles per litre.

For `Nc1ncnc2c1ncn2CC(=O)N(CCNC(=O)[C@@H](CCC(=O)O)NC(=O)[C@H](Cc1ccc(C(=O)c2ccccc2)cc1)NC(=O)CCCNC(=O)CCCC[C@@H]1SC[C@@H]2NC(=O)N[C@@H]21)CC(=O)NCC(=O)O` , write its pEC50.
4.74

For `Nc1ncnc2c1ncn2CC(=O)N(CCNC(=O)CCCNC(=O)[C@H](Cc1ccc(C(=O)c2ccccc2)cc1)NC(=O)CCCNC(=O)CCCC[C@@H]1SC[C@@H]2NC(=O)N[C@@H]21)CC(=O)NCC(=O)O` , write its pEC50.
5.36

For `Nc1ncnc2c1ncn2CC(=O)N(CCNC(=O)CNC(=O)[C@H](Cc1ccc(C(=O)c2ccccc2)cc1)NC(=O)CCCNC(=O)CCCC[C@@H]1SC[C@@H]2NC(=O)N[C@@H]21)CC(=O)NCC(=O)O` , write its pEC50.
4.84

For `Nc1ncnc2c1ncn2CC(=O)N(CCNC(=O)[C@@H](CO)NC(=O)[C@H](Cc1ccc(C(=O)c2ccccc2)cc1)NC(=O)CCCNC(=O)CCCC[C@@H]1SC[C@@H]2NC(=O)N[C@@H]21)CC(=O)NCC(=O)O` , write its pEC50.
4.63
